The reported numbers originate from patent US11896589B2.

TGT: MYCbHLHZip (Homo sapiens)
Construct: An amino coupling procedure was used to immobilize MYCbHLHZip protein on a CM5 sensor chip
Sequence (P01106 368-449 limits assumed): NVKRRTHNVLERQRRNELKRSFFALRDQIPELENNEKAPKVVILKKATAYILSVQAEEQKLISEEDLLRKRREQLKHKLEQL
TEST DETAILS: Assay 2B MYC SPR assay
Type: binding
CONDITION INFO: 1:1 Langmuir model; read-out: KD (average of four kinetic experiments)
MEASURE: pKd
Just so you know, pKd here is -log10 of the concentration in molar units; reply with that number alone.

The compound listed as CCOc1ccc2nc3cc(/N=N/c4ccc(N)nc4N)ccc3c(N)c2c1 [Example 1, sulphate hydrate] shows pKd equal to 5.80

---

TGT: MYCbHLHZip (Homo sapiens)
Construct: An amino coupling procedure was used to immobilize MYCbHLHZip protein on a CM5 sensor chip
TEST DETAILS: Assay 2B MYC SPR assay
Assay type: binding
CONDITION INFO: Langmuir 1:1, constant Rmax 43 RU; read-out: KD (one representative kinetic experiment)
MEASURE: Kd (nM)
Write the answer as a number in nM, unit excluded.

MYCbHLHZip (Homo sapiens) assay, molecule CCOc1ccc2nc3cc(/N=N/c4ccc(N)nc4N)ccc3c(N)c2c1 [Example 1, sulphate hydrate] , recorded Kd = 2500
